Please respond with reported pest or weed control at 500 g/ha for every item in the list.
Tested on: Euphorbia heterophylla (EPHHL)
experimentDescription: Post-emergence efficacy, Method A
Assay type: in vivo
cond: Euphorbia heterophylla, post-emergence, 312 h; Application Rate 500 g/Ha; evaluated after 13 days; Method A; read-out: Control of weed species after post-emergence application, EPHHL (100=total damage to plant; 0=no damage to plant)
Numbers only, in %.

Known results for molecules:
molecule	recordedMeasurement
Nc1nccc(-c2cc[n+](CCS(=O)(=O)[O-])nc2)n1	80
CC(C(=O)OC(C)(C)C)[n+]1ccc(-c2ncccn2)cn1 (stereo not drawn)	60
O=S(=O)([O-])CCC[n+]1ccc(-c2ccc(-c3ccc(Cl)nn3)nn2)cn1	30

Batch lookup, pest or weed control at 500 g/ha per entry.
1. CC(CNS(=O)(=O)[O-])[n+]1ccc(-c2ncccn2)cn1 (stereo not drawn)
2. CN(C)S(=O)(=O)[N-]C(=O)C[n+]1ccc(-c2ncccn2)cn1
3. O=C(O)C(O)C[n+]1ccc(-c2ccncn2)cn1 (stereo not drawn)
4. O=S(=O)([O-])CC[n+]1ccc(-c2ccc(C(F)(F)F)cn2)cn1
5. N#Cc1ccnc(-c2cc[n+](CCO)nc2)n1
6. CC(C)(C[n+]1ccc(-c2ccncn2)cn1)C(=O)O

// result
1. 80
2. 100
3. 80
4. 60
5. 30
6. 90

---

Please respond with reported pest or weed control at 500 g/ha for every item in the list.
System: Amaranthus palmeri (AMAPA)
experimentDescription: Post-emergence efficacy, Method A
Assay type: in vivo
cond: Amaranthus palmeri, post-emergence, 312 h; Application Rate 500 g/Ha; evaluated after 13 days; Method A; read-out: Control of weed species after post-emergence application, AMAPA (100=total damage to plant; 0=no damage to plant)
One number for each entry, in %.

Known results for compounds:
compound	assayTarget	recordedMeasurement
O=C([O-])CCC[n+]1ccc(-c2ncccn2)cn1	Amaranthus palmeri (AMAPA)	100
O=S(=O)([O-])CC[n+]1ccc(-c2ncc(CO)cn2)cn1	Amaranthus palmeri (AMAPA)	100
COC(=O)c1ccc(C[n+]2ccc(-c3ncccn3)cn2)cc1	Amaranthus palmeri (AMAPA)	10
CN(C)S(=O)(=O)[N-]C(=O)C[n+]1ccc(-c2ncccn2)cn1	Amaranthus palmeri (AMAPA)	100
CC(C(=O)OC(C)(C)C)[n+]1ccc(-c2ncccn2)cn1 (stereo not drawn)	Amaranthus palmeri (AMAPA)	70
CC(CC(=O)O)[n+]1ccc(-c2ccncn2)cn1 (stereo not drawn)	Amaranthus palmeri (AMAPA)	30
Nc1cc(-c2cc[n+](CCC(=O)O)nc2)nc(N)n1	Amaranthus palmeri (AMAPA)	90
CC(CC[n+]1ccc(-c2ncccn2)cn1)S(=O)(=O)[O-] (stereo not drawn)	Amaranthus palmeri (AMAPA)	100

// switching to the query compound
// query Sample Cc1ccc(-c2cc[n+](CCS(=O)(=O)[O-])nc2)nc1 — what was its pest or weed control at 500 g/ha?
// result 20

---

Tested on: Solanum turberosum (SOLTU)
experimentDescription: Pre-harvest desiccation of crop plants
Type: in vivo
cond: Table E; 150 g/Ha; evaluated after 7 and 14 days (which not stated); 100=total damage to plant, 0=no damage
parameter: Post-emergence dessication efficacy, SOLTU
Answers are plain numbers.

Known results for compounds:
structureNotation	recordedMeasurement
O=C(O)CC[n+]1ccc(-c2ccncn2)cn1.[Cl-]	100
O=C(O)CC[n+]1ccc(-c2ncccn2)cn1.[Cl-]	62
O=S(=O)([O-])CC[n+]1ccc(-c2cccnn2)cn1	27

// switching to the query compound
// query Sample O=S(=O)([O-])CC[n+]1ccc(-c2ncccn2)cn1 — what was its Post-emergence dessication efficacy, SOLTU?
// result 38

---

Test system: Euphorbia heterophylla (EPHHL)
experimentDescription: Post-emergence efficacy, Method A
Type: in vivo
cond: Euphorbia heterophylla, post-emergence, 312 h; Application Rate 500 g/Ha; evaluated after 13 days; Method A; read-out: Control of weed species after post-emergence application, EPHHL (100=total damage to plant; 0=no damage to plant)
parameter: pest or weed control at 500 g/ha (%)
Numbers only, in %.

Known results for compounds:
compound	unitTag	pest or weed control at 500 g/ha
N[C@@H](CC[n+]1ccc(-c2ncccn2)cn1)C(=O)O [Compound A201, 2,2,2-trifluoroacetate]	%	90
O=S(=O)([O-])CCCC[n+]1ccc(-c2ncccn2)cn1	%	90
O=S(=O)([O-])CC[n+]1ccc(-c2ccnc(C(F)(F)F)c2)cn1	%	50
Cc1ccc(-c2cc[n+](CCS(=O)(=O)[O-])nc2)nc1	%	30

// switching to the query compound
// query Sample O=C(O)CC[n+]1ccc(-c2ccncc2F)cn1 — what was its pest or weed control at 500 g/ha?
// result 80

---

Test system: Echinochloa crus-galli (ECHCG)
experimentDescription: Post-emergence efficacy, Method A
Type: in vivo
cond: Echinochloa crus-galli, post-emergence, 312 h; Application Rate 500 g/Ha; evaluated after 13 days; Method A; read-out: Control of weed species after post-emergence application, ECHCG (100=total damage to plant; 0=no damage to plant)
Experimental: Seeds of a variety of test species were sown in standard soil in pots. […] After 13 days the test was evaluated (100=total damage to plant; 0=no damage to plant). […]
Please respond with reported pest or weed control at 500 g/ha for every item in the list.
Answers are plain numbers, in %.

compound	assayTarget	recordedMeasurement
N#Cc1ccc(-c2cc[n+](CCC(=O)O)nc2)nc1 [Compound A176]	Echinochloa crus-galli (ECHCG)	30
CC(CC[n+]1ccc(-c2ncccn2)cn1)S(=O)(=O)[O-] (stereo not shown) [Compound A185]	Echinochloa crus-galli (ECHCG)	40
O=C(O)CC[n+]1ccc(-c2ccncc2F)cn1 [Compound A157]	Echinochloa crus-galli (ECHCG)	80
Nc1cc(-c2cc[n+](CCC(=O)O)nc2)ccn1 [Compound A210]	Echinochloa crus-galli (ECHCG)	10
Cc1ccc(-c2cc[n+](CCS(=O)(=O)[O-])nc2)nc1 [Compound A155]	Echinochloa crus-galli (ECHCG)	40
O=S(=O)([O-])CC[n+]1ccc(-c2ncc(C(F)(F)F)cc2Cl)cn1 [Compound A175]	Echinochloa crus-galli (ECHCG)	30
O=P(O)(O)CCC[n+]1ccc(-c2ncccn2)cn1 [Compound A233]	Echinochloa crus-galli (ECHCG)	60
O=S(=O)([O-])OCCC[n+]1ccc(-c2ncccn2)cn1 [Compound A216]	Echinochloa crus-galli (ECHCG)	70

Batch lookup, pest or weed control at 500 g/ha per entry.
1. COC(=O)c1ccc(C[n+]2ccc(-c3ncccn3)cn2)cc1 [Compound A229]
2. Cc1cc(-c2cc[n+](CCS(=O)(=O)[O-])nc2)nc(C)n1 [Compound A231]
3. Cc1c[n+](CCC(=O)O)ncc1-c1ncccn1 [Compound A153]
4. O=C(O)C(O)C[n+]1ccc(-c2ncccn2)cn1 (stereo not shown) [Compound A180]
5. O=P(O)(O)CC[n+]1ccc(-c2ncccn2)cn1 [Compound A198]

// result
1. 0
2. 50
3. 40
4. 70
5. 80

---

System: Chenopodium album (CHEAL)
experimentDescription: Post-emergence efficacy, Method A
Type: in vivo
cond: Chenopodium album, post-emergence, 312 h; Application rate 500 g/Ha; evaluated after 13 days; 100=total damage to plant, 0=no damage to plant; read-out: Control of weed species after post-emergence application, CHEAL
Description: Seeds of a variety of test species were sown in standard soil in pots. […] After 13 days the test was evaluated (100=total damage to plant; 0=no damage to plant). […]
Please enter 1 (yes) where pest or weed control at 500 g/ha is greater than or equal to 20%, and 0 (no) where it is lower.

Record excerpt, results attached:
structureNotation	assignedCategory
Cc1nc(-c2cc[n+](CCC(=O)[O-])nc2)ncc1Cl	1 (yes)
Cc1cccc(-c2cc[n+](CCS(=O)(=O)[O-])nc2)n1	1 (yes)
COc1cnc(-c2cc[n+](CCS(=O)(=O)[O-])nc2)nc1	1 (yes)
O=C([O-])CC[n+]1ccc(-c2cccc(C(F)(F)F)n2)cn1	1 (yes)
CCOP(=O)(CC[n+]1ccc(-c2cnccn2)cn1)OCC	0 (no)

// query Could you please find out whether COc1cnc(-c2cc[n+](CCCS(=O)(=O)[O-])nc2)cn1 has pest or weed control at 500 g/ha that meets 20% or exceeds it?
// result 0 (no)

// query Could you please find out whether O=S(=O)([O-])CCC[n+]1ccc(-c2cncc(Cl)n2)cn1 has pest or weed control at 500 g/ha that meets 20% or exceeds it?
// result 1 (yes)

// query Could you please find out whether O=C(O)CC[n+]1ccc(-c2ncc(F)cc2F)cn1 has pest or weed control at 500 g/ha that meets 20% or exceeds it?
// result 0 (no)

---

Test system: Euphorbia heterophylla (EPHHL)
experimentDescription: Post-emergence efficacy, Method A
Assay type: in vivo
cond: Euphorbia heterophylla, post-emergence, 312 h; Application Rate 500 g/Ha; evaluated after 13 days; Method A; read-out: Control of weed species after post-emergence application, EPHHL (100=total damage to plant; 0=no damage to plant)
Please respond with reported pest or weed control at 500 g/ha for every item in the list.
Numbers only, in %.

Batch lookup, pest or weed control at 500 g/ha per entry.
1. O=S(=O)([O-])CC[n+]1ccc(-c2ncc(CO)cn2)cn1
2. O=P(O)(O)CC[n+]1ccc(-c2ncccn2)cn1
3. O=S(=O)([O-])OCCC[n+]1ccc(-c2ncccn2)cn1
4. O=C(O)C(O)C[n+]1ccc(-c2ncccn2)cn1 (stereo not shown)

// result
1: 70; 2: 100; 3: 100; 4: 80

// data source = patent US20220125051A1
